Conditions: in isopropanol, 288.15 K

{"smilesStr": "COC(=O)c1ccccc1S(N)(=O)=O", "solubility (mole fraction)": 0.00239}

====

Conditions: in 2-butanone, 287.95 K

{"smilesStr": "COC(=O)c1ccccc1S(N)(=O)=O", "solubility (mole fraction)": 0.0446}

====

Details: in n-propanol, 288.15 K

{"smilesStr": "COC(=O)c1ccccc1S(N)(=O)=O", "solubility (mole fraction)": 0.00274}

====

Details: in isopropanol, 293.05 K

{"smilesStr": "COC(=O)c1ccccc1S(N)(=O)=O", "solubility (mole fraction)": 0.00317}

====

Settings: in methanol, 312.15 K

{"smilesStr": "COC(=O)c1ccccc1S(N)(=O)=O", "solubility (mole fraction)": 0.0264}
